For each of the molecules below, state its growth.
Test system: EKVX NSCLC
Assay: NCI-60 one-dose screen, 48 h (100 = growth as untreated, 0 = no growth, -100 = all killed)
Conditions: 10 µM unless noted
Method: Growth inhibition of the EKVX human Non-Small Cell Lung tumor cell line is measured as a screen for anti-cancer activity. Cells are grown in 96 well plates and exposed to the test compound for 48 hours. Compounds are tested at a single concentration, which is 10^-5 M for most compounds. The reported endpoint is percent growth (GI% or GIPRCNT), where numbers from 0 - 100% represent growth inhibition, and numbers from -100% - 0 represent cell death. […]
About 83,000 compounds went through this panel and 20% of them were active in at least one assay; those are over-represented in the sample as a whole. Calls of active or inactive are those of the source. The calls were made as follows: active = growth percent below 10; inactive = the rest.

Find the recorded growth belonging to CN1CCN(c2ccc(-c3cc4c(Nc5ccc(F)c(Cl)c5)ncnn4c3)cc2)CC1 and report it. 83.5% (inactive)

Param item = NCCCNc1nc2ccccc2c2c(=O)c3cc(OC(F)(F)F)ccc3sc12 ; retrieve measured growth. 67.9% (inactive)

Fill in: growth of CCc1ccc(Oc2c(-c3ccc(OCc4ccc(Cl)cc4)cc3O)nn(C)c2C(F)(F)F)cc1 is ___ 9.36% (active)

Return reported growth; argument: O=C1CSC(c2c(Cl)cccc2Cl)N1c1nc(Cl)cc(=O)[nH]1 (centres undefined) 119% (inactive)

Query (molecule): O=c1c2cc(F)ccc2sc2c(N3CCNCC3)nc3ccccc3c12 ; field requested: growth 72.5% (inactive)

For the molecule CCCCC[C@H](O)C/C=C1/C(=O)C=C[C@@H]1C/C=C\CCCC(=O)O , what growth is on record? 100% (inactive)

Record request: growth value, item CC1=C(SCCC(=O)OC(C[Se]C2=C(C)C(=O)c3ccccc3C2=O)C(=O)NC(C)(C)C)C(=O)c2ccccc2C1=O (centres undefined) -71.2% (active)

Reported growth for Cc1cc(C)c(-c2c(N)cc(Br)cc2Br)c(N)c1 : what is it? 65.9% (inactive)

Quick one: growth of CCCCCCn1c(-c2ccc(C(=O)O/N=C(\N)c3ccc4ccccc4c3)cc2)nc(-c2ccccc2)c1-c1ccccc1 ? 18% (inactive)
